FYI, the data here is from paper PMC12472322.

# Test system: U-87 MG cells
# assay context: half-maximal cytotoxic concentration
// reported VEEV (TC-83) CC50 for each item listed
experimental endpoint: VEEV (TC-83) CC50

C(#Cc1snc2cc(-c3ccc(OCCN4CCCC4)cc3)cnc12)c1cccnc1 : >10 µM
C(#Cc1snc2cc(-c3ccc(OCCN4CCOCC4)cc3)cnc12)c1cccnc1 : >10 µM
COc1cccc(C#Cc2snc3cc(-c4ccc(OC)c(OC)c4)cnc23)c1 : >10 µM
COc1cc(-c2cnc3c(C#Cc4cccnc4)snc3c2)ccc1N : >20 µM
COc1ccc(-c2cnc3c(C#Cc4ccccc4F)snc3c2)cc1OC : >20 µM
COc1ccncc1C#Cc1snc2cc(-c3ccc(OC)c(OC)c3)cnc12 : 7.69 ± 0.001 µM
Fc1ccccc1-c1cnc2c(C#Cc3cccnc3)snc2c1 : >20 µM
COc1ccc(-c2cnc3c(C#Cc4cnc5ccccc5c4)snc3c2)cc1OC : >10 µM
COc1ccc(-c2cnc3c(C#Cc4cnccc4C)snc3c2)cc1OC : >10 µM

----------
# Test system: LN-229
# procedure details: cell proliferation assay (MTS, 72 h)
# assay context: Homo sapiens, LN-229, 72 h, read-out: CC50 LN-229
A collection of compounds and their measured CC50
experimental endpoint: CC50 (µM)

COc1ccc(-c2cnc3c(C#Cc4cccnc4)snc3c2)cc1OC : 1.62
NC(=O)c1ccc(-c2cnc3c(C#Cc4cccnc4)snc3c2)cc1 : 3.23
Cc1cccc(/C=N/Nc2cc(N3CCOCC3)nc(OCCc3ccccn3)n2)c1 [Apilimod, reference compound] : 0.08
COc1cncc(C#Cc2snc3cc(-c4ccc(OC)c(OC)c4)cnc23)c1 : 5.15
Fc1ccc(-c2cnc3c(C#Cc4cccnc4)snc3c2)cc1 : 4.39
COc1ccccc1-c1cnc2c(C#Cc3cccnc3)snc2c1 : 3.28
Ic1cccc(/C=N/Nc2nc(N3CCOCC3)nc(N(c3ccccc3)c3ccccc3)n2)c1 [Vacuolin-1, reference compound] : 6.35

----------
# test system: PIKfyve (Homo sapiens, UniProt Q9Y2I7)
# Construct: purchased Nanosyn, Santa Clara, CA, USA (contract assay service)
# Sequence (Q9Y2I7 whole entry): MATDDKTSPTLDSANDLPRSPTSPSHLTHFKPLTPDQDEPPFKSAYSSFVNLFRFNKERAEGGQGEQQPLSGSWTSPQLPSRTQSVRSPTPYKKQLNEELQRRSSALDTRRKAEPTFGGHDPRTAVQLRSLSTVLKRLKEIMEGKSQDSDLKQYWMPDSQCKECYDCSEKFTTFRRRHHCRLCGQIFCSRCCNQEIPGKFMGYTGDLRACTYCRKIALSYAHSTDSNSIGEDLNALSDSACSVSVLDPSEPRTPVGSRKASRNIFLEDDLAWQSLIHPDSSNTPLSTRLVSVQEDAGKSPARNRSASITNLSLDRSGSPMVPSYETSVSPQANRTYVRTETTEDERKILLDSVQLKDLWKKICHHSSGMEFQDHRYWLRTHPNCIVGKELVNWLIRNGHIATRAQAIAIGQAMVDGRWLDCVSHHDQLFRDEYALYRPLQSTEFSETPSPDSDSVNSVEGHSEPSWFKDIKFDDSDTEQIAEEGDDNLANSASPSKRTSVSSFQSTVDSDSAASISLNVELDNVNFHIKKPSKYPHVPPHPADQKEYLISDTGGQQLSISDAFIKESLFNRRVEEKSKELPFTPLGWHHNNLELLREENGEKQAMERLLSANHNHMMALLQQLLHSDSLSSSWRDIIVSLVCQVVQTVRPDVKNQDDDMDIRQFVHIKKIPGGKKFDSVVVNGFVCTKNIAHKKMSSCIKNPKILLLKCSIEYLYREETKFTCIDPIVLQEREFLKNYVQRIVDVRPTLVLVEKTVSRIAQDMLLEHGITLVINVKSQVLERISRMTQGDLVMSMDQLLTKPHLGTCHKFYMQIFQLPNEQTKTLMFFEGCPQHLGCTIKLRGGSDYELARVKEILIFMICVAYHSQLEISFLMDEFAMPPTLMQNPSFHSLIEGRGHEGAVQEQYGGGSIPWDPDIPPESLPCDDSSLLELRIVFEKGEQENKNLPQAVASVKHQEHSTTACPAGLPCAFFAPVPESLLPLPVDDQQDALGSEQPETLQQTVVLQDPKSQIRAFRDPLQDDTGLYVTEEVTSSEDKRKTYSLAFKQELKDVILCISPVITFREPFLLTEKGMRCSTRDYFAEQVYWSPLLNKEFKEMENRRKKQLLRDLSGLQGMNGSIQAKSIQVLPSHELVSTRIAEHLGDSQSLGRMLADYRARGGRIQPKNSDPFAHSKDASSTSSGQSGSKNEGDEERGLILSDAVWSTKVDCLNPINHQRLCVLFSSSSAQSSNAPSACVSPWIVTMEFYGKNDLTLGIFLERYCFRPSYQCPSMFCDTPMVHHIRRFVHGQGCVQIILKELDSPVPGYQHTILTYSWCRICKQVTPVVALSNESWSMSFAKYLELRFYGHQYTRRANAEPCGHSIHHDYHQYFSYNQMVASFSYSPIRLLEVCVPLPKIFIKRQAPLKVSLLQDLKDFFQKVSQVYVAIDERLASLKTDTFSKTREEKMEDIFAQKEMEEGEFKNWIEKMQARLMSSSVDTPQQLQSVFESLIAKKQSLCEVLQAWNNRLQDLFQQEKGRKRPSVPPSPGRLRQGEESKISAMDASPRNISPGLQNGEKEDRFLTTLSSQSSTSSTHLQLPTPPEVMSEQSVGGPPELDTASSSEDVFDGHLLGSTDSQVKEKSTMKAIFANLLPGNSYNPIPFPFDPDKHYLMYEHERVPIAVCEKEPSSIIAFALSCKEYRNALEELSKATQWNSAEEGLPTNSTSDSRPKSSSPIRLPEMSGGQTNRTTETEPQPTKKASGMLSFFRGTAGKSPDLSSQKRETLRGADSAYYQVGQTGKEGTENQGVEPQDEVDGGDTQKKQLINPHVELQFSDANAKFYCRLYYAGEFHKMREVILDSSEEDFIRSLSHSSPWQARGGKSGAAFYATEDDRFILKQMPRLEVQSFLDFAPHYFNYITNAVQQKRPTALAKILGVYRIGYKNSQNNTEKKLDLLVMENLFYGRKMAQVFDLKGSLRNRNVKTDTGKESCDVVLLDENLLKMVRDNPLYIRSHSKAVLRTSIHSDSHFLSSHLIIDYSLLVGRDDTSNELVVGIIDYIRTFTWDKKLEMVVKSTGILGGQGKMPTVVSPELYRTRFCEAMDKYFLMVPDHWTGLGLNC
# procedure details: biochemical PIKfyve mobility shift assay (Nanosyn)
# assay context: values given in text in nM
experimental endpoint: IC50 (nM)

COc1cncc(C#Cc2snc3cc(-c4ccc(OC)c(OC)c4)cnc23)c1 : 3
COc1ccc(-c2cnc3c(C#Cc4cncc(C)c4)snc3c2)cc1OC : 2
Cc1ccccc1-c1cnc2c(C#Cc3cccnc3)snc2c1 : 8

----------
# procedure details: cell viability (AlamarBlue) in SARS-CoV-2-infected Vero E6/TMPRSS2 cells
# Format: cell-based
# assay context: African green monkey, Vero E6/TMPRSS2 cells infected with SARS-CoV-2, half-maximal cytotoxic concentration, read-out: SARS-CoV2 CC50
Readings of CC50 for the listed molecules
experimental endpoint: CC50

COc1ccc(-c2cnc3c(C#Cc4cccnc4)snc3c2)cc1OC [Compound 21] : > 20 µM
Cc1cccc(/C=N/Nc2cc(N3CCOCC3)nc(OCCc3ccccn3)n2)c1 [Apilimod, reference compound] : 18.4 µM
COc1cc(-c2cnc3c(C#Cc4cccnc4)snc3c2)ccc1N [Compound 3f] : > 20 µM
C(#Cc1snc2cc(-c3ccc(OCCN4CCCC4)cc3)cnc12)c1cccnc1 [Compound 5b] : > 20 µM
COc1cncc(C#Cc2snc3cc(-c4ccc(OC)c(OC)c4)cnc23)c1 [Compound 7l] : > 20 µM
COc1cc(-c2cnc3c(C#Cc4cccnc4)snc3c2)ccc1C(=O)O [Compound 4] : > 20 µM
COc1cccc(-c2cnc3c(C#Cc4cccnc4)snc3c2)c1 [Compound 3a] : < 10 µM
COC(=O)c1cncc(C#Cc2snc3cc(-c4ccc(OC)c(OC)c4)cnc23)c1 [Compound 7m] : > 20 µM
COc1ccc(-c2cnc3c(C#Cc4ccccc4F)snc3c2)cc1OC [Compound 7e] : 15.7 µM

----------
# test system: PIKfyve (Homo sapiens)
# Construct: purchased Nanosyn, Santa Clara, CA, USA (contract assay service)
# procedure details: biochemical PIKfyve mobility shift assay (Nanosyn)
# assay context: Tables 1-4 and text
As shown below, each of these compounds has a reported IC50 value.
experimental endpoint: IC50

COc1ccc(-c2cnc3c(C#Cc4ccc(C#N)nc4)snc3c2)cc1OC [Compound 7q] : > 10000 nM
COc1ccc(-c2cnc3c(C#Cc4ccccc4F)snc3c2)cc1OC [Compound 7e] : 62 nM
CCNC(=O)c1ccc(-c2cnc3c(C#Cc4cccnc4)snc3c2)cc1 [Compound 3n] : 3.5 nM
COc1ccc(-c2cnc3c(C#Cc4cc(C)cnc4F)snc3c2)cc1OC [Compound 7v] : 42 nM
COc1ccc(-c2cnc3c(CCc4cccnc4)snc3c2)cc1OC [Compound 22] : 33 nM
COc1ccc(-c2cnc3c(-c4cccnc4)snc3c2)cc1OC [Compound 17] : 602 nM
COc1ccc(-c2cnc3c(C#Cc4cnccc4C)snc3c2)cc1OC [Compound 7p] : 33 nM
COc1ccc(-c2cnc3c(C#Cc4ccc(F)nc4)snc3c2)cc1OC [Compound 7j] : 120 nM
CCCC#Cc1snc2cc(-c3ccc(OC)c(OC)c3)cnc12 [Compound 7a] : 850 nM
CN(C)C(=O)c1cccc(-c2cnc3c(C#Cc4cccnc4)snc3c2)c1 [Compound 3q] : 18 nM
CN(C)C(=O)c1ccc(-c2cnc3c(C#Cc4cccnc4)snc3c2)cc1 [Compound 3o] : 25 nM
COc1cccc(-c2cnc3c(C#Cc4cccnc4)snc3c2)c1 [Compound 3a] : 6.8 nM
COc1ccc(-c2cnc3c(C#Cc4cncc(F)c4)snc3c2)cc1OC [Compound 7r] : 98 nM
COc1ccc(-c2cnc3c(C#CCNc4ccccc4)snc3c2)cc1OC [Compound 13] : 184 nM
COC(=O)c1cncc(C#Cc2snc3cc(-c4ccc(OC)c(OC)c4)cnc23)c1 [Compound 7m] : 120 nM
C(#Cc1snc2cc(-c3ccc(OCCN4CCOCC4)cc3)cnc12)c1cccnc1 [Compound 5a] : 7.1 nM
NC(=O)c1ccc(-c2cnc3c(C#Cc4cccnc4)snc3c2)cc1 [Compound 3m] : 1.6 nM
CO/C(=C\c1snc2cc(-c3ccc(OC)c(OC)c3)cnc12)c1cccnc1 [Compound 23a] : 525 nM
COCCOc1ccc(-c2cnc3c(C#Cc4cccnc4)snc3c2)cc1 [Compound 3j] : 2.1 nM

----------
# test system: PIKfyve (Homo sapiens, UniProt Q9Y2I7)
# Construct: purchased Nanosyn, Santa Clara, CA, USA (contract assay service)
# procedure details: biochemical PIKfyve mobility shift assay (Nanosyn)
# assay context: Tables 1-4 and text
pIC50: −log10 of the molar value.
# pIC50 listing for each entry below
experimental endpoint: pIC50

COc1cc(-c2cnc3c(C#Cc4cccnc4)snc3c2)ccc1N : 8.55
Fc1ccc(-c2cnc3c(C#Cc4cccnc4)snc3c2)cc1 : 8.00
C(#Cc1snc2cc(-c3ccc(OCCN4CCCC4)cc3)cnc12)c1cccnc1 : 8.26
COc1ccc(-c2cnc3c(C#Cc4ccc(C(F)(F)F)nc4)snc3c2)cc1OC : 6.17
O=C(c1ccc(-c2cnc3c(C#Cc4cccnc4)snc3c2)cc1)N1CCCC1 : 7.70
COc1ccc(-c2cnc3c(C#CCNS(=O)(=O)c4ccccc4)snc3c2)cc1OC [Compound 11b] : 5.74
COc1ccc(-c2cnc3c(C#Cc4cccc(Cl)c4)snc3c2)cc1OC : 7.41
COc1ccc(-c2cnc3c(C#Cc4ccccc4)snc3c2)cc1OC : 7.23
COc1ccccc1-c1cnc2c(C#Cc3cccnc3)snc2c1 : 8.17

----------
# test system: PIKfyve (Homo sapiens)
# Construct: purchased Nanosyn, Santa Clara, CA, USA (contract assay service)
# procedure details: biochemical PIKfyve mobility shift assay (Nanosyn)
# assay context: Tables 1-4 and text
Flag rule - IC50 less than 20 nM flags yes; the remaining entries get no.

COc1ccncc1C#Cc1snc2cc(-c3ccc(OC)c(OC)c3)cnc12 : yes
COc1ccc(-c2cnc3c(C#Cc4ccc(F)cc4)snc3c2)cc1OC : no
COc1ccc(-c2cnc3c(C#CCNC(=O)c4ccccc4)snc3c2)cc1OC [Compound 11a] : no
COc1cccc(C#Cc2snc3cc(-c4ccc(OC)c(OC)c4)cnc23)c1 : no
C(#Cc1snc2cccnc12)c1cccnc1 : no
Cc1ccccc1-c1cnc2c(C#Cc3cccnc3)snc2c1 : yes
Fc1ccccc1-c1cnc2c(C#Cc3cccnc3)snc2c1 : yes
COc1ccc(-c2cnc3c(C#Cc4ccncc4)snc3c2)cc1OC : no
COc1ccc(-c2cnc3c(C#Cc4ccccn4)snc3c2)cc1OC : no
CCOc1ncccc1C#Cc1snc2cc(-c3ccc(OC)c(OC)c3)cnc12 : no
COc1ccc(-c2cnc3c(/C=C(\SCCO)c4cccnc4)snc3c2)cc1OC [Compound 23d] : no
COc1ccc(-c2cnc3c(/C=C(/c4cccnc4)N4CCOCC4)snc3c2)cc1OC [Compound 23c] : no
COc1ccc(-c2cnc3c(NCc4cccnc4)snc3c2)cc1OC : no
Clc1cccc(-c2cnc3c(C#Cc4cccnc4)snc3c2)c1 : no
COCCNC(=O)c1cccc(-c2cnc3c(C#Cc4cccnc4)snc3c2)c1 : yes
COc1ccc(C#Cc2snc3cc(-c4ccc(OC)c(OC)c4)cnc23)cn1 : no
COc1cc(-c2cnc3c(C#Cc4cccnc4)snc3c2)ccc1C(=O)O : no
COc1ccc(-c2cnc3c(NC(=O)c4cccnc4)snc3c2)cc1OC : no
CN(C)c1ccc(-c2cnc3c(C#Cc4cccnc4)snc3c2)cc1 : yes
